Origin of values: patent US20050004038A1

Consider the following pIC50 values measured on human glutathione S-transferase P1-1 (GSTP1-1) (Homo sapiens, UniProt P09211).
Sequence (P09211 2-210 limits assumed): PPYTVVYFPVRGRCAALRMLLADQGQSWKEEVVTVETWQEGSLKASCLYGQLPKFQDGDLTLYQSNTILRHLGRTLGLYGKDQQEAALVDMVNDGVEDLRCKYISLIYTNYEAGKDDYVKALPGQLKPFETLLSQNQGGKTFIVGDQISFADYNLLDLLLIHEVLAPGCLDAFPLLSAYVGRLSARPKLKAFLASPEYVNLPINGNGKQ
Scale note: pIC50 = -log10(concentration in M).

Solved entries (count: 8):
Compound	Experimental endpoint	Result number
C=C(CC)C(=O)c1ccc(OCC(=O)NCCC(=O)NCc2cc(CNC(=O)CCNC(=O)COc3ccc(C(=O)C(=C)CC)c(Cl)c3Cl)cc(C(N)=O)c2)c(Cl)c1Cl	pIC50	5.92
Nc1c(S(=O)(=O)O)cc(Nc2cccc(S(=O)(=O)CCNCCOCCOCCNCCS(=O)(=O)c3cccc(Nc4cc(S(=O)(=O)O)c(N)c5c4C(=O)c4ccccc4C5=O)c3)c2)c2c1C(=O)c1ccccc1C2=O	pIC50	7.36
C=C(CC)C(=O)c1ccc(OCC(=O)NCCCC(=O)NCCCC(=O)NCCCC(=O)NCc2cc(CNC(=O)CCCNC(=O)CCCNC(=O)CCCNC(=O)COc3ccc(C(=O)C(=C)CC)c(Cl)c3Cl)cc(C(N)=O)c2)c(Cl)c1Cl	pIC50	6.85
C=C(CC)C(=O)c1ccc(OCC(=O)NCCCCCC(=O)NCc2cccc(CNC(=O)CCCCCNC(=O)COc3ccc(C(=O)C(=C)CC)c(Cl)c3Cl)c2)c(Cl)c1Cl	pIC50	7.57
NC(CCC(=O)NC(CSCCCCCCCCCCOC(=O)CCCCCCCSCC(NC(=O)CCC(N)C(=O)O)C(=O)NCC(=O)O)C(=O)NCC(=O)O)C(=O)O (stereo not shown)	pIC50	7.10
NC(=O)c1cc(CNC(=O)CCCCCNCCS(=O)(=O)c2cccc(Nc3cc(S(=O)(=O)O)c(N)c4c3C(=O)c3ccccc3C4=O)c2)cc(CNC(=O)CCCCCNCCS(=O)(=O)c2cccc(Nc3cc(S(=O)(=O)O)c(N)c4c3C(=O)c3ccccc3C4=O)c2)c1	pIC50	6.69
CCC(CSCC(NC(=O)CCC(N)C(=O)O)C(=O)NCC(=O)O)C(=O)c1ccc(OCC(=O)NCCCC(=O)NCc2cc(CNC(=O)CCCNC(=O)COc3ccc(C(=O)C(CC)CSCC(NC(=O)CCC(N)C(=O)O)C(=O)NCC(=O)O)c(Cl)c3Cl)cc(C(N)=O)c2)c(Cl)c1Cl (stereo not shown)	pIC50	6.45
NC(=O)c1cc(CNC(=O)CCCNC(=O)CSCC(NC(=O)CCC(N)C(=O)O)C(=O)NCC(=O)O)cc(CNC(=O)CCCNC(=O)CSCC(NC(=O)CCC(N)C(=O)O)C(=O)NCC(=O)O)c1 (stereo not shown)	pIC50	4.61

Exercise: human glutathione S-transferase P1-1 (GSTP1-1) (Homo sapiens, UniProt P09211) / pIC50 / NC(CCC(=O)NC(CSCCCCCCCCCOC(=O)CCCCCCCSCC(NC(=O)CCC(N)C(=O)O)C(=O)NCC(=O)O)C(=O)NCC(=O)O)C(=O)O (stereo not shown) : value?
Solution: 6.52

Exercise: Same question for "C=C(CC)C(=O)c1ccc(OCC(=O)NCc2cc(CNC(=O)COc3ccc(C(=O)C(=C)CC)c(Cl)c3Cl)cc(C(N)=O)c2)c(Cl)c1Cl" please.
Solution: 6.00

Exercise: Same question for "Nc1c(S(=O)(=O)O)cc(Nc2cccc(S(=O)(=O)CCNCCOCCOCCOCCNCCS(=O)(=O)c3cccc(Nc4cc(S(=O)(=O)O)c(N)c5c4C(=O)c4ccccc4C5=O)c3)c2)c2c1C(=O)c1ccccc1C2=O" please.
Solution: 7.14

Exercise: Same question for NC(CCC(=O)NC(CSc1ccc(C(=O)OCCCOC(=O)c2cccc(C(=O)OCCCOC(=O)c3ccc(SCC(NC(=O)CCC(N)C(=O)O)C(=O)NCC(=O)O)c([N+](=O)[O-])c3)c2)cc1[N+](=O)[O-])C(=O)NCC(=O)O)C(=O)O (stereo not shown) please.
Solution: 6.55

Exercise: Same question for NC(CCC(=O)NC(CSCCCCCCCCCCCCOC(=O)CCCCCCCSCC(NC(=O)CCC(N)C(=O)O)C(=O)NCC(=O)O)C(=O)NCC(=O)O)C(=O)O (stereo not shown) please.
Solution: 6.72
